These measurements were taken from ChEMBL document CHEMBL3039007.

Target: Solute carrier organic anion transporter family member 1B1 (Homo sapiens)
Sequence (Q9Y6L6 whole entry): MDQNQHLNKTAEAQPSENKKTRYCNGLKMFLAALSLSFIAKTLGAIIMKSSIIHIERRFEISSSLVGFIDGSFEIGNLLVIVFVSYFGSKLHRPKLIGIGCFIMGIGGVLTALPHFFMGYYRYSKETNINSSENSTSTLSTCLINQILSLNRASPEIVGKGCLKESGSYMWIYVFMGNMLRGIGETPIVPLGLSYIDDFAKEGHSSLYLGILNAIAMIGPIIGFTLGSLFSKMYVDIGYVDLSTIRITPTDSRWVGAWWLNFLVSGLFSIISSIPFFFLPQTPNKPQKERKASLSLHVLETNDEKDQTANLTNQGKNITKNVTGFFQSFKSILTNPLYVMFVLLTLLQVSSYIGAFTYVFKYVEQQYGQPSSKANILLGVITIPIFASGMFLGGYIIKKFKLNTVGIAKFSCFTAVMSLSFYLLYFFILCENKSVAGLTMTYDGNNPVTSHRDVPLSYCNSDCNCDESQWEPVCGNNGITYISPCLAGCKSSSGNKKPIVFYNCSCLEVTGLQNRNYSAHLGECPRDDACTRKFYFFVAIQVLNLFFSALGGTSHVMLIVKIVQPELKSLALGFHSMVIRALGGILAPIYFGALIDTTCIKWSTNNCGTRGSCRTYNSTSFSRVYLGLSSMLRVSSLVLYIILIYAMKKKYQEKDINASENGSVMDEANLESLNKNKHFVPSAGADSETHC
Conditions: chinese hamster, cho, 10 µM
Note to self: residual activity under 90% means fulfilled, ties and anything higher get not fulfilled.

Does this compound meet the criterion residual activity < 90%? O=c1cc(-c2cc(O)c(O)c(O)c2)oc2cc(O)cc(O)c12
fulfilled

Does this compound meet the criterion residual activity < 90%? Oc1c(Cl)cc(Cl)c2cccnc12
fulfilled

Does this compound meet the criterion residual activity < 90%? CC(C)Cc1ccc(C(C)C(=O)O)cc1 (stereo not drawn)
not fulfilled

Does this compound meet the criterion residual activity < 90%? N[C@@H](Cc1c[nH]c2ccccc12)C(=O)O
not fulfilled

Does this compound meet the criterion residual activity < 90%? CCC[C@H]1CCCCN1
not fulfilled

Does this compound meet the criterion residual activity < 90%? Cc1cc(=O)oc2cc(O)c(O)cc12
not fulfilled

Does this compound meet the criterion residual activity < 90%? CC(C)(S)[C@@H](N)C(=O)O
not fulfilled

Does this compound meet the criterion residual activity < 90%? COc1ccccc1OCC(O)COC(N)=O (stereo not drawn)
not fulfilled

Does this compound meet the criterion residual activity < 90%? Cc1cc(C(C)(C)C)c(O)c(C)c1CC1=NCCN1.Cl [OXYMETAZOLINE HYDROCHLORIDE]
not fulfilled

Does this compound meet the criterion residual activity < 90%? CCCCCCCCCCCCC[N+](C)(C)Cc1ccccc1.[Cl-] [BENZALKONIUM CHLORIDE]
fulfilled

Does this compound meet the criterion residual activity < 90%? CC1=CCCC2C1(C)CCC(C)C2(C)CC/C(C)=C/Cn1c[n+](C)c2c(N)ncnc21 (stereo not drawn)
fulfilled

Does this compound meet the criterion residual activity < 90%? Cc1c(N(C)CS(=O)(=O)[O-])c(=O)n(-c2ccccc2)n1C.[Na+] [DIPYRONE SODIUM]
fulfilled

Does this compound meet the criterion residual activity < 90%? CC(C)CCC[C@@H](C)[C@H]1CC[C@H]2[C@@H]3CC=C4C[C@@H](O)CC[C@]4(C)[C@H]3CC[C@]12C
not fulfilled

Does this compound meet the criterion residual activity < 90%? CC(=O)Oc1cccc(O)c1 [RESORCINOL MONOACETATE]
not fulfilled

Does this compound meet the criterion residual activity < 90%? O=C1C=CC(=O)c2c(O)cccc21
fulfilled

Does this compound meet the criterion residual activity < 90%? C=CCC1(C(C)CCC)C(=O)N=C([S-])NC1=O.[Na+] (stereo not drawn) [THIAMYLAL SODIUM]
fulfilled

Does this compound meet the criterion residual activity < 90%? CC(=O)O[C@H]1CC[C@]2(C)[C@H]3CC[C@@H]4[C@@H]5CC(C)(C)CC[C@]5(C(=O)O)CC[C@@]4(C)[C@]3(C)CC[C@H]2C1(C)C
not fulfilled
